assay system: T1, PbuCas13b (UniProt E6K398 1-1127)
T1 sequence: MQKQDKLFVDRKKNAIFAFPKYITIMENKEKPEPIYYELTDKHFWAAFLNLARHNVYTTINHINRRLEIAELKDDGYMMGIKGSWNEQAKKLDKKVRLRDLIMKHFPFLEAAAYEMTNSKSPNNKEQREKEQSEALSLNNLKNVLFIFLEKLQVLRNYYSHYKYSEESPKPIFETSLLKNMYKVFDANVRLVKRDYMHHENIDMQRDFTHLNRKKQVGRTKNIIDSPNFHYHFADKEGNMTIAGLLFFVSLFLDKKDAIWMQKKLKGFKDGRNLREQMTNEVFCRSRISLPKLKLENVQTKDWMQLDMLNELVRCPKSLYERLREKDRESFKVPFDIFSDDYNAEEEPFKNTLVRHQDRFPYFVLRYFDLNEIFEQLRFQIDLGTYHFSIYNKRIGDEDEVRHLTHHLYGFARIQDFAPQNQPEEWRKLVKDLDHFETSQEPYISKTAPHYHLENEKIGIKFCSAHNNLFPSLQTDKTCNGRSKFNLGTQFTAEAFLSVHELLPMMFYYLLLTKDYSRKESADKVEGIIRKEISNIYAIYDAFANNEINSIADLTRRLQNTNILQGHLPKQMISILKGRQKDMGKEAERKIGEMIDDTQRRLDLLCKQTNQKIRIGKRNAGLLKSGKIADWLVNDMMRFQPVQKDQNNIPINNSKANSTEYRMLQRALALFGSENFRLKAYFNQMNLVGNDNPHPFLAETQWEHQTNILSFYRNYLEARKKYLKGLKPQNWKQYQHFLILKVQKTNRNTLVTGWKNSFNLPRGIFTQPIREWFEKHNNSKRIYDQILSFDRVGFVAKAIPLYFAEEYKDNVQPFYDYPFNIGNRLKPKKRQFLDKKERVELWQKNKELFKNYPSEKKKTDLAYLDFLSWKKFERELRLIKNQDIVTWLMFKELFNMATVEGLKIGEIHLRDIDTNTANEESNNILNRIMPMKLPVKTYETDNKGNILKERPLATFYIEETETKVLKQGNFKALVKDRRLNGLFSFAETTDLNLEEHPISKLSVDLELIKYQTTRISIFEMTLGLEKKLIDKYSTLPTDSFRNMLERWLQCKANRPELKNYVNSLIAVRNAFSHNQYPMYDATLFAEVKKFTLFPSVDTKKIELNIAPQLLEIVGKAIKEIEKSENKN
measurement notes: MST
pKd: −log10 of the molar value.
measured endpoint: pKd

Exercise: # lookup: pKd of crRNA-1 processed (KW-RNA-002) (structured_RNA) RNA: CGUCGCCGUCCAGCUCGACCAGGAUGGGAAGUUGCAUCUGCCUUCUUUUUGAAAGGUAAAAACAAC
Key: ~6.00
